System: OVCAR-5 ovarian
Assay: NCI tumour cell line growth inhibition, 48 h
Exercise: state measured TGI for each of the compounds provided.

Please look at this compound and report its TGI: Cc1ccc(C)c(N2C(=O)C(=O)c3c(C)ccc(C)c32)c1
> 100 µM

Look up and state reported TGI for O=C1CCCC(=O)C1C(=O)c1ccc(C(F)(F)F)cc1[N+](=O)[O-]
> 100 µM

Provide measured TGI value, entry: Cc1n(CC(C)C)c2c([n+]1CC(=O)c1ccc([N+](=O)[O-])cc1)C(=O)c1ccccc1C2=O
0.0698 µM

Give the value of TGI reported for the following: CCN(CC)CCNc1ccc2ncn3c4c(OC)ccc(=O)c4c(O)c1c23
> 92.7 µM

Return TGI for the following compound: O=C1C=C(NCCc2cc(Cl)c(O)c(Cl)c2)C(=O)c2[nH]cnc21
> 100 µM
